protocol_description: yeast display, Sf9 membrane polyspecificity reagent, FACS + sequencing; frameworks hold sequencing errors
measured_quantity: polyreactivity (PSR sort gate)

1. QVQIVESGGGLVQAGGSLRLSCAASGTTFDAYAMGWYRQAPGKERELVAAITNAGSTNYADSVKGRFTISRDNAKNTVYLQMNSLKPEETAVYYCATDWYHRYLDGRYDYWGQGTQETVSS: low polyreactivity
2. QVQLVESGGGLVQAGGSLRLSCAASGSIFADNAMGWYRQAPGKERELVAAITRGGSTYYADSVKGRFTISRDNAKNTVYLQMNSLKPEDTAVYYCAAGTTTYSVNEVPVREGYDYWGQGTQVTVSS: low polyreactivity
3. QVQLEESGGRLVQAGCSLRLSCAASGYIFRKYAMGWYRQAPGKEWELVADISSSGGSTYYADSVKGRFTISRDNAKNTVYLQMNSLKPEDTAGYYCAKDRKSSRRINRMDYWGQGTQVTVSS: high polyreactivity
4. QVQLVESGGGLVQAGGSLRLSCAASGRTFGYNAMGWYRQAPGKESELVAVISRGSRTYYADSVKGRFTISRDNAKNTVYLQMNSLKPEDTAVYYCAADYEYSGYGYWGQGTQVTVSS: high polyreactivity
5. QDQLVESGGGLVQAGGSLRLSCAASGFTFDRYAMGWYRQAPGKERELVAAITSSGGSTYYADSVKGRFTISRDNAKNTVYLQMNSLKPEDTAVYYCAVAYSSHTSYYSWGQSTQVTVSS: low polyreactivity
6. QVQLVESGGGLVQAGGSLRLRCAASARTFRDYAMGCYRQATGKERELVAVIDSGGGTDYADSVKGRFTISRDNAKNTVYLQMNSLKPEDTAVYYCAADSSVRYRDTEDYWGQGTQVTVSS: low polyreactivity
7. QVQLVESGGGLVQAGGSLRLSCAASGSIFRPYAMGWYRQAPGKERELVAAITWSGGRTYYADSVKGRFTISRDNAKNTVYLQMNSLKPEDTAVYYCAADDSEGFDYWGQGTQVTVSS: high polyreactivity

====

protocol_description: yeast display, Sf9 membrane polyspecificity reagent, FACS + sequencing; frameworks hold sequencing errors
measured_quantity: polyreactivity (PSR sort gate)

1. QVQLVESGGGLVQAGGSLRLSCAASGRIFLVYAMGWYRQAPGKERELVAAIRSGGSTYYADSVKGRFTISRDNAKNTVYLQMNSLKPEVTAVYYCIADSPWYWVRYGVSRRDYWGQGTQVTVSS: low polyreactivity
2. KLQLVESGRGLVQEGGSLRLSCAASGSTFGANAMGWYRHAPGKASEFVAAISRSGVRTYYADSVKGRFTISRDNAKNTVYLQMNSQKPEDTAVYYCAAYGYWWTYTRDDYWGQGTQGTVSS: low polyreactivity
3. QVQLVESGGGLVQAGGSLRISCAPSGFTFGHYAMGWYRQAPGKERELVAAISYSGVRTYYADSVKGRFTISRDNAKNTVYLQMNSLKPEDTAVYYCNKYPAHYQTRRYDYWGQGTQVTVSS: high polyreactivity
4. QVQLVESGGGLVQAGGSLRLSCAASGSTIYTYAMGWSRQAPGKERELVAAINRSGGTTYYADSVKGRFTISRDNAKNTVYLQMNSLKPEDTADYYCARRRYGYDYWGQGTQVTVSS: high polyreactivity
5. QVQLVESGGGLVQAGGSLRLSCAASGNISLPYTMGWYRQAPGKERELVAAISWDGGRTYYADSVKGRFTISRDNAKNTDYLQMNSLKPEDTAVYYCGARFFLVTLDYWGQGTQVTVSS: low polyreactivity
6. QVQLVESGGGLVQAGGSLRLSCAASGGIFQENAMGWYRPAPGKERELVATITRSTGSTYYADSVKGRFTISRDNAKNTVYLQMNSLKPEDTAVYYCAARRRSQYYRYAYKYDYWGQGTQVTVSS: high polyreactivity
7. QVQLVESGGCLVQAGGSLRLSCAASGRIFVYYAMGWYRQAPGKERELVAGISLSGGSTYYADSVKGRFTISRDNAKNTVYLQMYSLKPEDTAVYDSAIEVNAGYYVWYDYWGQGTQVTVSS: low polyreactivity
8. QVQLVESGGGLVQAGGSLRLSCDASGRIFQPNVMGWYRQAPGKERELVAAIRSGSSTYYADSVKGRFTISRDNAKNTFYLQMNSLKPEDTAVYYCATRYRKQYKPYEYWGQGTQVTVSS: high polyreactivity
9. QVQLVESGGGLVQAGGSLRLSCAASGFTFVDNAMGWYRQAPGKERELVAVIDFNDGTTYYADSVKGRFTISRDNAKNSVYLQMNSLKPEDTEVYYCNVDSSLILWVEYDYWGQGTQVTVSS: low polyreactivity
10. QVQLVESGGGLVQAGGSLRLSCAASGRIFRVNAMGWYRQAPGKERELVAAISGRGGSTYYADSVKGRFTISRDNANNTVYLQMNSLKPEDTAVYYCAKKSFSYGYNSYDYWGQGTQVTVSS: high polyreactivity
11. QVQLVESGGGLVQAGGSLRLSCAASGRIFSKYAMGWYRQAPGKERELVAAISNGGSTNYADTVKGRFTISRDNAKNTVYLQMNSLKPEDTAVYYCAKQDRVLYGGYDSWGQGTQVTVSS: low polyreactivity
12. QVQLVESGGGLVQAGGSLRLICAASGSTFYKYNMGWYRQAPGKERELVAAISGSGTTTYYADTVKGRFTISRDNAKNTVYLQMNSLKPEDTAVYYCAARRFSPGSSGHGYWGQGTQVTVSS: high polyreactivity
13. QVQLVESGGGLVQAGGSLRLSCAASGRTFNPYTMGWYRQAPGKEREFVATIRKSSGGTYYADSVKGRFTISRDTAKNTVYLQMNSLKPEDTAVYYCAAVGNGGMDYWGQGTQVTVSS: low polyreactivity
